- Experiment: Rat pharmacokinetics, oral dosing
- Type: in vivo, Sprague-Dawley rats
- Condition notes: male, Sprague-Dawley, oral dosing at 10 mg/kg, plasma
Measure name: Cmax

# Smiles, Result
measured = [
    ("COc1cc(C(=O)O)cc2c1nc(CN1CCC(c3cccc(OCc4ccc(C#N)cc4F)n3)CC1)n2Cc1cncs1", "500 to 1000 ng/mL"),
]

====

- Target desc: human GLP-1R receptor (Homo sapiens, UniProt P43220)
- Sequence (P43220 24-463): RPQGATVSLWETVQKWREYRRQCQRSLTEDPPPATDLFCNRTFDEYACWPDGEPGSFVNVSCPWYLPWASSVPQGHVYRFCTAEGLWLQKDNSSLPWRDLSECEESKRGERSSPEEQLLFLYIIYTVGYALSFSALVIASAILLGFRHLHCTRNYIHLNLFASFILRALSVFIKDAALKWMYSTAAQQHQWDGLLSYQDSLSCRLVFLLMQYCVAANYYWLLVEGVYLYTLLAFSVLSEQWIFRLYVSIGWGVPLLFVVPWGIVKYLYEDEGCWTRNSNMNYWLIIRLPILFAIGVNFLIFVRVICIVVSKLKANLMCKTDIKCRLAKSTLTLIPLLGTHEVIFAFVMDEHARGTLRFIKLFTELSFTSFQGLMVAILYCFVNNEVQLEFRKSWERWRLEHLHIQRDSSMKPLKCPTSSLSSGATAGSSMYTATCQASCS
- Experiment: GLP-1R low expression cell assay (cAMP TR-FRET, CHO-K1_hGLP-1Rlow_clone10 cells)
- Condition notes: cAMP TR-FRET, 30 min at 25° C.
Measured EC50 of individual entries
Measure name: EC50

# Molecule, Measure name, Result
data = [
    ("N#Cc1ccc(COc2cccc(C3CCN(Cc4nc5c(O)nc(C(=O)O)cc5n4C[C@@H]4CCO4)CC3)n2)c(F)c1", "EC50", "< 10 nM"),
    ("Cn1c(CN2CCC(c3cccc(OCc4ccc(Cl)cc4F)n3)CC2)nc2c(OC(F)F)cc(C(=O)O)c(F)c21", "EC50", "10 to 100 nM"),
    ("COc1cc(C(=O)O)cc2c1nc(CN1CCC(c3cccc(OCc4cc(F)c(Cl)cc4F)n3)CC1)n2C", "EC50", "< 10 nM"),
    ("COc1cc(C(=O)O)cc2c1nc(CN1CCC(c3cccc4c3O[C@H](c3ccc(C#N)cc3F)CO4)CC1)n2C", "EC50", "10 to 100 nM"),
    ("CCOc1cc(C(=O)O)cc2c1nc(CN1CCC(c3cccc(OCc4ccc(C#N)cc4F)n3)CC1)n2C", "EC50", "< 10 nM"),
    ("Cn1c(CN2CCC(c3cccc(COc4ccc(C#N)cc4F)n3)CC2)nc2c(OC(F)F)cc(C(=O)O)cc21", "EC50", "> 1000 nM"),
    ("N#Cc1ccc(COc2cccc(C3CCN(Cc4nc5c(N)nc(C(=O)O)cc5n4C[C@@H]4CCO4)CC3)n2)c(F)c1", "EC50", "10 to 100 nM"),
    ("COCCOc1cc(C(=O)O)cc2c1nc(CN1CCC(c3cccc4c3O[C@@](C)(c3ccc(Cl)cn3)O4)CC1)n2C", "EC50", "< 10 nM"),
    ("Cn1c(CN2CCC(c3cccc(OCc4ccc(C#N)cc4F)n3)CC2)nc2c(OCCF)cc(C(=O)O)cc21", "EC50", "< 10 nM"),
    ("C[C@]1(c2ccc(Cl)cn2)Oc2cccc(C3CCN(Cc4nc5c6c(c(C(=O)O)cc5n4C[C@@H]4CCO4)OCCO6)CC3)c2O1", "EC50", "< 10 nM"),
    ("Cn1c(N(C)[C@H]2CC[C@H](c3cccc(OCc4ccc(C#N)cc4F)n3)CC2)nc2c(OC(F)F)cc(C(=O)O)cc21", "EC50", "< 10 nM"),
    ("Cn1c(CN2CCC(c3cccc(OCc4ccc(Cl)cc4F)n3)CC2)nc2c(OC(F)F)c(C(=O)O)ccc21", "EC50", "> 1000 nM"),
    ("Cn1c(CN2CCC(n3ccc(OCc4ccc(Cl)cc4F)n3)CC2)nc2c(OC(F)F)cc(C(=O)O)cc21", "EC50", "> 1000 nM"),
    ("COCCc1nc(C(=O)O)cc2c1nc(CN1CCC(c3cccc(OCc4ccc(C#N)cc4F)n3)CC1)n2C", "EC50", "> 1000 nM"),
    ("COc1ccc(C2CCN(Cc3nc4c(OC(F)F)cc(C(=O)O)cc4n3C)CC2)cc1OCc1ccc(Cl)cc1F", "EC50", "> 1000 nM"),
    ("Cn1c(CN2CCC(c3cccc(F)c3OCc3ccc(C#N)cc3F)CC2)nc2c(OC(F)F)cc(C(=O)O)cc21", "EC50", "100 to 1000 nM"),
    ("COc1cc(C(=O)O)cc2c1nc(CN1CCC(c3cccc(OCc4ccc(C(F)F)cc4F)n3)CC1)n2C", "EC50", "10 to 100 nM"),
    ("Cn1c(CN2CCC(c3cccc4c3OC[C@H](c3ccc(C#N)cc3F)O4)CC2)nc2c(OC(F)F)cc(C(=O)O)cc21", "EC50", "> 1000 nM"),
    ("Cn1c(CN2CCC(c3cccc(OCc4ccc(Cl)cc4F)n3)CC2)nc2c(OCC(F)(F)F)cc(C(=O)O)cc21", "EC50", "10 to 100 nM"),
    ("CC(C)(C)Oc1cc(C(=O)O)cc2c1nc(CN1CCC(c3cccc(OCc4ccc(C#N)cc4F)n3)CC1)n2C[C@@H]1CCO1", "EC50", "< 10 nM"),
    ("Cn1c(CN2CCC(c3cccc(OCc4ccc(C#N)cc4F)n3)CC2)nc2c(OC(C)(F)F)cc(C(=O)O)cc21", "EC50", "10 to 100 nM"),
    ("Cn1c(CN2CCC(c3cccc(COc4ccc(Cl)cc4F)n3)C2)nc2c(OC(F)F)cc(C(=O)O)cc21 (stereo not shown)", "EC50", "> 1000 nM"),
    ("COc1cc(C#N)ccc1COc1cccc(C2CCN(Cc3nc4c(OC(F)F)cc(C(=O)O)cc4n3C)CC2)n1", "EC50", "< 10 nM"),
    ("Cn1c(CN2CCC(n3nccc3OCc3ccc(Cl)cc3F)CC2)nc2c(OC(F)F)cc(C(=O)O)cc21", "EC50", "> 1000 nM"),
    ("COc1cc(C(=O)O)cc2c1nc(CN1CCC(c3cccc(OCc4ccc(C#N)cc4F)n3)CC1)n2Cc1cncs1", "EC50", "< 10 nM"),
    ("Cn1c(CN2CCC(c3cccc(OCc4ccc(Cl)cc4F)n3)CC2)nc2c3c(c(C(=O)O)cc21)OCCO3", "EC50", "10 to 100 nM"),
    ("CC(=O)Nc1cc(C(=O)O)cc2c1nc(CN1CCC(c3cccc(OCc4ccc(C#N)cc4F)n3)CC1)n2C", "EC50", "10 to 100 nM"),
    ("Cn1c(CN2CCC(c3cccc(OCc4ccc(Cl)cc4F)n3)CC2)nc2c(OCF)cc(C(=O)O)cc21", "EC50", "< 10 nM"),
]

====

- Target desc: human GLP-1R receptor (Homo sapiens, UniProt P43220)
- Experiment: GLP-1R low expression cell assay (cAMP TR-FRET, CHO-K1_hGLP-1Rlow_clone10 cells)
- Condition notes: cAMP TR-FRET, 30 min at 25° C.
pEC50: −log10 of the molar value.

# Compound, pEC50
data = [
    ("C[C@]1(c2ccc(Cl)cn2)Oc2cccc(C3CCN(Cc4nc5c(OCC6COC6)cc(C(=O)O)cc5n4C[C@@H]4CCO4)CC3)c2O1 [Compound 77]", "> 8.00"),
    ("Cn1c(CN2CCC(c3cccc(OCc4ccc(C(F)(F)F)cc4)n3)CC2)nc2c(OC(F)F)cc(C(=O)O)cc21 [Compound 203]", "7.00 to 8.00"),
    ("C[C@]1(c2ccc(Cl)cn2)Oc2cccc(C3CCN(Cc4nc5c(OC(F)F)cc(C(=O)O)cc5n4C[C@@H]4CCO4)CC3)c2O1 [Compound 78]", "> 8.00"),
    ("COc1cc(C(=O)O)cc2c1nc(N(C)[C@H]1CC[C@H](c3cccc(OCc4ccc(C#N)cc4F)n3)CC1)n2C [Compound 178]", "> 8.00"),
    ("Cn1c(CN2CCC(c3cccc4c3O[C@@](C)(c3ccc(Cl)cn3)O4)CC2)nc2c(OC(F)F)cc(C(=O)O)cc21 [Compound 83]", "> 8.00"),
    ("COCC(F)(F)Oc1cc(C(=O)O)cc2c1nc(CN1CCC(c3cccc(OCc4ccc(Cl)cc4F)n3)CC1)n2C [Compound 227]", "> 8.00"),
]

====

- Target desc: human GLP-1R receptor (Homo sapiens)
- Experiment: GLP-1R low expression cell assay (cAMP TR-FRET, CHO-K1_hGLP-1Rlow_clone10 cells)
- Condition notes: cAMP TR-FRET, 30 min at 25° C.
pEC50: −log10 of the molar value.
Reported pEC50 values follow for various compounds

# Compound, pEC50
measured = [
    ("Cc1ccc(COc2c(F)cccc2C2CCN(Cc3nc4c(OC(F)F)cc(C(=O)O)cc4n3C)CC2)c(F)c1 [Compound 139]", "7.00 to 8.00"),
    ("COc1cc(C(=O)O)cc2c1nc(CN1CCC(c3cccc(OCc4cc(F)c(C#N)cc4F)n3)CC1)n2C [Compound 327]", "> 8.00"),
    ("CO/N=C/c1ccc(COc2cccc(C3CCN(Cc4nc5c(OC)cc(C(=O)O)cc5n4C[C@@H]4CCO4)CC3)n2)c(F)c1 [Compound 9]", "> 8.00"),
    ("Cn1c(CN2CCC(c3cccc(OCc4ccc(OC(F)F)cc4F)n3)CC2)nc2c(OC(F)F)cc(C(=O)O)cc21 [Compound 221]", "7.00 to 8.00"),
]
